target: bovine cardiac myofibrils (BcMF) (Bos taurus, UniProt Q9BE39); assay: Myofibrillar ATPase activity at pCa 6; assay type: biochemical; details: read-out: Myofibrillar ATPase (BcMF) IC50, pCa 6, 23°C
Sequence (Q9BE39 whole entry): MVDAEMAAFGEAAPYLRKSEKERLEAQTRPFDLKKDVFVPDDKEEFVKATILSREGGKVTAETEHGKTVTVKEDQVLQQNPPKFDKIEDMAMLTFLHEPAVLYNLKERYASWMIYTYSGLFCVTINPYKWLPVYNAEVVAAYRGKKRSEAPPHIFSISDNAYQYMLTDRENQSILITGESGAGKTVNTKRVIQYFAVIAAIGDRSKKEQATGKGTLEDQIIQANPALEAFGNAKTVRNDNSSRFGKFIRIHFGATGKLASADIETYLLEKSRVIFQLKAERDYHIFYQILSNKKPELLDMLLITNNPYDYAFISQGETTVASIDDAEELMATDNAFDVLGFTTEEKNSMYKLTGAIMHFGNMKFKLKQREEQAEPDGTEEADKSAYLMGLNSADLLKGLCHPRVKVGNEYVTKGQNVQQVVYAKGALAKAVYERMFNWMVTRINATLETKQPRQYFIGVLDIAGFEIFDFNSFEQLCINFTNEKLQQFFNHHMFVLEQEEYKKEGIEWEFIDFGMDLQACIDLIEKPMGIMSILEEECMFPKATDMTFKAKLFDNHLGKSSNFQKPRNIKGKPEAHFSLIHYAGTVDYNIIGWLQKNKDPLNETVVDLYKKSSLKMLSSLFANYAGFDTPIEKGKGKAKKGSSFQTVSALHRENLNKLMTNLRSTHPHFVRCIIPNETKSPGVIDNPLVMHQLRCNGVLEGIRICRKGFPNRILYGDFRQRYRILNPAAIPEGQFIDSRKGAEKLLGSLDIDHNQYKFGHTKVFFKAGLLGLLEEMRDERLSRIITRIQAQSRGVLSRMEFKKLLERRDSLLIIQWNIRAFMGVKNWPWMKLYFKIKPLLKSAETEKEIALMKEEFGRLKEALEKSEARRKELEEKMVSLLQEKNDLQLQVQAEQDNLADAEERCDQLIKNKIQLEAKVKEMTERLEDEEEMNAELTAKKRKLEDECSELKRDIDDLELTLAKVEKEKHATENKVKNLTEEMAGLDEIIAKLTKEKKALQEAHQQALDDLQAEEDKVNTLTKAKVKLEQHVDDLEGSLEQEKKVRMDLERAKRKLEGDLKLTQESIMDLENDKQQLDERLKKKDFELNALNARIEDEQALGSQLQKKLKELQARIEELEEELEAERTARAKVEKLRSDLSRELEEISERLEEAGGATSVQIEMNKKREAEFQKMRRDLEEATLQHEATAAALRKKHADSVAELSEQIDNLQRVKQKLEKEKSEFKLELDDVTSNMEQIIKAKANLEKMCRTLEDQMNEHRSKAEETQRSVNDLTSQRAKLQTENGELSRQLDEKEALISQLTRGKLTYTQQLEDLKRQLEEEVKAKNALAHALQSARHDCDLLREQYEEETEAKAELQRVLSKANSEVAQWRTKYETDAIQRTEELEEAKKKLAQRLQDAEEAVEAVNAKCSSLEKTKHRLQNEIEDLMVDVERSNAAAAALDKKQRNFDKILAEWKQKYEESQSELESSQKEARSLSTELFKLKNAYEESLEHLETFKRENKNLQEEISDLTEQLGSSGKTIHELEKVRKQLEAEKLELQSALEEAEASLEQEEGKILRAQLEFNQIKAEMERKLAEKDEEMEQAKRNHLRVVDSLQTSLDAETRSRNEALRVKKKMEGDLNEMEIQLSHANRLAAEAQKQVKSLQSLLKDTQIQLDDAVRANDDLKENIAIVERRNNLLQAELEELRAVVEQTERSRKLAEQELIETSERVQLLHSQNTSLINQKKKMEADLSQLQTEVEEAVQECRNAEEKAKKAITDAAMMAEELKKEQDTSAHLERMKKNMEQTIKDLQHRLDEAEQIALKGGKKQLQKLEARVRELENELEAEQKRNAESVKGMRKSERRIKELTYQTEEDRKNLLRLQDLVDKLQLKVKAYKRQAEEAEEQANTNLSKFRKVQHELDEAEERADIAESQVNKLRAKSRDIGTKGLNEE
Sequence (P85100 whole entry partner): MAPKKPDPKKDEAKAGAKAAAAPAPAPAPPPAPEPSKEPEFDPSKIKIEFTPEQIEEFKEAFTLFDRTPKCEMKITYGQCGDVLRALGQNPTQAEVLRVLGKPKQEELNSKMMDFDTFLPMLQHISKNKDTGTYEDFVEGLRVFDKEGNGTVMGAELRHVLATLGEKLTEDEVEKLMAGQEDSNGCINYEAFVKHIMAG
Sequence (Q3SZE5 whole entry partner): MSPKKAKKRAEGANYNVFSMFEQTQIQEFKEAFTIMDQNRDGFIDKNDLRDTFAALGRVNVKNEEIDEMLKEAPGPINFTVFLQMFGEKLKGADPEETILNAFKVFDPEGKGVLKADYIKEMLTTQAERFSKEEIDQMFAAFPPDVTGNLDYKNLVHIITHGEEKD
quantity name: IC50
Answer format reminder: number followed by unit.

Input line: Please provide the recorded IC50 for `Cc1ccc2c(c1)C(=O)[C@]1(O)CCN(c3ccc([N+](=O)[O-])cc3)C1=N2` , tested on bovine cardiac myofibrils (BcMF) (Bos taurus, UniProt Q9BE39).
Output line: 4.05 µM
